biological target: Geranylgeranyl transferase type I (Homo sapiens, UniProt P49354+P53609); experiment: In vitro inhibition against human Geranylgeranyl transferase type I catalyzed by incorporation of [3H]- GGPP (geranylgeranyl pyrophosphate) into biotinylated peptide corresponding to the c-terminus of human Ki-Ras
So basically: is IC50 under 0.06 µM? Then met. Not under? Then not met.

Study these solved cases before continuing.
N#Cc1ccc(Cn2cncc2CN2CCN(c3cccc(Cl)c3)C(=O)C2)cc1Oc1cccc(Cl)c1 ... met
N#Cc1ccc(Cn2cncc2CN2CCN(c3cccc(Cl)c3)C(=O)C2)cc1Oc1ccccc1Cl ... met
O=C1CN(Cc2cncn2Cc2cccc(Oc3ccccc3)c2)CCN1c1cccc(Cl)c1 ... not met
N#Cc1ccc(Cn2cncc2CN2CCN(c3cccc(Cl)c3)C(=O)C2)cc1Oc1ccc2ccccc2c1 ... not met

Consider the additional molecule presented here.
Problem: Is IC50 of N#Cc1ccc(Cn2cncc2CN2CCN(c3cccc(Cl)c3)C(=O)C2)cc1Oc1ccc(OCc2ccccc2)cc1 strictly below 0.06 µM?
Result: not met
